Tested on: PKN3;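 further: NanoBRET target engagement in HEK293T cells transiently expressing full-length PKN3 with C-terminal NanoLuc, displacement of fluorescent tracer K5 (500 nM), BRET read after 2 h equilibration at 37 °C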
test parameters: read-out: Average; hek293t cells; SD, n = 3
Assignment: determine reported pIC50 for the given molecules.
Note on units: pIC50 is unitless, being -log10 of a concentration expressed in mol/L.

The recorded pIC50 for COc1cccc2c(-c3ccncc3)c(-c3ccc(F)cc3)nn12 [GW468513X] is 6.04

The recorded pIC50 for Cc1cccc2c(-c3ccncn3)c(-c3ccc(F)cc3)nn12 [GW515532X] is 4.57

---

Test system: ICK
Parameters: species or system human, MV4-11 + K-562 + COLO205 + SK-N-BE2 + OVCAR-8
test parameters: read-out: apparent Kd; compound concentrations:100 nM and 1000 nM (sheet 'Samples'); n = 1
Assignment: determine reported potency estimated from few doses for the given compounds.
API: value field is a number in µM; no unit string.

The recorded potency estimated from few doses for CN(C)CC(O)COc1ccc(Nc2nccc(-c3cnn4nc(N5CCOCC5)ccc34)n2)cc1 (stereo not shown) [GW767488X] is 1.72

The recorded potency estimated from few doses for C[C@@H](c1ccccc1)[C@@H](C(=O)Nc1ccc(I)cc1F)N1C(=O)N[C@H](c2ccc(OC[C@H](O)CO)cc2)C1=O is 1.31

The recorded potency estimated from few doses for CN1CCC(C(=O)Nc2n[nH]c3nc(-c4ccc(O)cc4)c(Br)cc23)CC1.O=C(O)/C=C\C(=O)O is 1.16

The recorded potency estimated from few doses for NS(=O)(=O)c1ccc(N/N=C2\C(=O)Nc3ccc(-c4cnco4)cc32)cc1 is 1.77

---

Tested on: TGFBR2;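 further: competition pulldown with Kinobeads ε in cell lysates, inhibitor preincubated 45 min at 4 °C, bound kinases quantified by LC–MS/MS against DMSO control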
Design: species or system human, MV4-11 + K-562 + COLO205 + SK-N-BE2 + OVCAR-8
test parameters: read-out: apparent Kd; compound concentrations:0.3nM, 1nM, 3nM, 10nM, 30nM, 100nM, 300nM, 1000nM,R2:0.95772159417417102,slope:0.90025260883160396,EC50 Standard Error, by the legend:Standard error of the EC50 estimation as provided by the drc package.
measurement label: Kd (nM)
API: value field is a number in nM; no unit string.

The recorded Kd for Cl.NCc1ccc(-c2nc(-c3ccc(Cl)c(O)c3)c(-c3ccncc3)[nH]2)cc1 is 767

---

System: PIK3CD
Set-up: species or system human, MV4-11 + K-562 + COLO205 + SK-N-BE2 + OVCAR-8
test parameters: read-out: apparent Kd; compound concentrations:100 nM and 1000 nM (sheet 'Samples'); n = 1
measurement label: potency estimated from few doses
Mention the unit after the number when you answer.

The recorded potency estimated from few doses for O=c1cc(N2CCOCC2)nc2n(Cc3ccc(F)c(Cl)c3)ccn12 [GSK2297099A] is 150 nM

The recorded potency estimated from few doses for Cc1cccc(Nc2nc(N[C@H]3CCNC3)ncc2C(N)=O)c1.Cl [GSK2197149A] is 10.5 nM

The recorded potency estimated from few doses for Clc1cccc(-c2nc(Nc3ccncc3)c3ccccc3n2)c1 [GW873004X] is 106 nM

The recorded potency estimated from few doses for COc1cc2ncn(-c3cc(OCc4ccc(S(C)(=O)=O)cc4)c(C(N)=O)s3)c2cc1OC [GW869979X] is 120 nM

---

Assignment: determine reported potency estimated from few doses for the given compounds.
Test system: GSK3A
Set-up: species or system human, MV4-11 + K-562 + COLO205 + SK-N-BE2 + OVCAR-8
test parameters: read-out: apparent Kd; compound concentrations:100 nM and 1000 nM (sheet 'Samples'); n = 1
Mention the unit after the number when you answer.

The recorded potency estimated from few doses for O=C(Nc1n[nH]c2cc(-c3ccco3)ccc12)C1CC1 [SB-737447] is 498 nM

The recorded potency estimated from few doses for Cn1cc(C2=C(c3c4n(c5ccccc35)CCC(CN)CC4)C(=O)NC2=O)c2ccccc21 (stereo not shown) [RO0319371-000] is 608 nM

The recorded potency estimated from few doses for CCn1c(-c2nonc2N)nc2c(C#CC(C)(C)O)ncc(OC[C@@H]3CCCN3)c21.O=C(O)C(F)(F)F [GSK614526A] is 365 nM

The recorded potency estimated from few doses for O=C(Nc1n[nH]c2nc(-c3ccco3)c(Br)cc12)C1CCN(Cc2ccccc2)C1.O=C(O)[C@H](O)[C@@H](O)C(=O)O (stereo not shown) [SB-742034-AC] is 410 nM

The recorded potency estimated from few doses for Cl.Cl.NCC(C(=O)Nc1cc(Br)c(-c2ccnc3[nH]ccc23)s1)c1ccccc1.NCC(C(=O)Nc1cc(Br)c(-c2ccnc3[nH]ccc23)s1)c1ccccc1 (stereo not shown) [GSK1269851A] is 109 nM

The recorded potency estimated from few doses for Cc1nnc(-c2ccc3occ(-c4ccc(S(C)=O)cc4)c3c2)[nH]1 (stereo not shown) [TPKI-85] is 339 nM

The recorded potency estimated from few doses for COc1cccc(C2=C(c3cn(C)c4ccccc34)C(=O)NC2=O)c1 [RO0318649-000] is 802 nM

---

Tested on: CDK16
Parameters: species or system human, MV4-11 + K-562 + COLO205 + SK-N-BE2 + OVCAR-8
test parameters: read-out: apparent Kd; compound concentrations:100 nM and 1000 nM (sheet 'Samples'); n = 1
measurement label: potency estimated from few doses

CDK16 assay, compound Cn1cc(C2=C(c3cn(CCCSC(=N)N)c4ccccc34)C(=O)NC2=O)c2ccccc21 [RO0318220-000] , recorded potency estimated from few doses = 1720 nM

CDK16 assay, compound COc1cc[nH]c1/C=C1\C(=O)Nc2ccc(F)c(C#C[C@@H](O)[C@@H](N)[C@@H](C)O)c21 [RO0283120-000] , recorded potency estimated from few doses = 235 nM

CDK16 assay, compound NS(=O)(=O)c1ccc(N/N=C2\C(=O)Nc3ccc(-c4cnco4)cc32)cc1 [GW276655_KCGS] , recorded potency estimated from few doses = 1880 nM

CDK16 assay, compound CN(C)CC(O)COc1ccc(Nc2nccc(-c3cnn4nc(N5CCOCC5)ccc34)n2)cc1 (stereo not shown) [GW767488X] , recorded potency estimated from few doses = 262 nM

---

Test system: NNT
Parameters: species or system human, MV4-11 + K-562 + COLO205 + SK-N-BE2 + OVCAR-8
test parameters: read-out: apparent Kd; compound concentrations:100 nM and 1000 nM (sheet 'Samples'); n = 1
measurement label: potency estimated from few doses (µM)
API: value field is a number in µM; no unit string.

The recorded potency estimated from few doses for COC(=O)Nc1nc2ccc(Oc3ccc(NC(=O)Nc4cc(C(F)(F)F)ccc4F)cc3)cc2n1C.Cl [GW692089A] is 1.91

The recorded potency estimated from few doses for Nc1nc(-c2ccc(F)cc2)c(-c2ccc3ncccc3n2)s1 [GW785804X] is 0.164

The recorded potency estimated from few doses for O=S(=O)(c1ccc(-c2ccnc3[nH]ccc23)cc1)N1CCCC1 [GSK846226A] is 2.15

The recorded potency estimated from few doses for CN(C)CCOc1ccc(-c2nc(-c3ccc4c(c3)CC/C4=N/O)c(-c3ccncc3)[nH]2)cc1 [SB-590885_KCGS] is 1.68

The recorded potency estimated from few doses for NS(=O)(=O)c1ccc(N/N=C2\C(=O)Nc3ccc(Cl)cc32)cc1 [GW280670X] is 1.29

The recorded potency estimated from few doses for COc1ccc(COc2ccc(Cc3cnc(N)nc3N)cc2OC)cc1 [GW632580X] is 1.91

The recorded potency estimated from few doses for CC(C(=O)NC1CCN(c2ccnc(Nc3ccc(F)cc3)n2)C1)c1ccc(Cl)cc1 (centres unmarked) [GSK1379713A] is 1.4

The recorded potency estimated from few doses for COc1cccc(C2=C(Nc3cccc(C(=O)O)c3)C(=O)NC2=O)c1 [SB-390770] is 1.12

---

System: ATM
Design: species or system human, MV4-11 + K-562 + COLO205 + SK-N-BE2 + OVCAR-8
test parameters: read-out: apparent Kd; compound concentrations:100 nM and 1000 nM (sheet 'Samples'); n = 1
Assignment: determine reported potency estimated from few doses for the given molecules.
API: value field is a number in nM; no unit string.

The recorded potency estimated from few doses for CCn1c(=O)c(Oc2ccc(F)cc2F)cc2cnc(NC3CCOCC3)nc21 is 238

The recorded potency estimated from few doses for Cc1cn2c(=O)cc(N3CCOCC3)nc2n1Cc1cccc(Cl)c1Cl [GSK2334006A] is 280

The recorded potency estimated from few doses for CNCc1ccc(-c2cc(-c3nc(-c4ccc(S(=O)(=O)C(C)C)cc4)cnc3N)on2)cc1 is 13.5

The recorded potency estimated from few doses for CNc1nccc(-c2c(-c3ccc(F)cc3)ncn2C2CCN(C)CC2)n1 is 80.7

The recorded potency estimated from few doses for COc1cc(Nc2cnc(C#N)c(O[C@H](C)CN(C)C)n2)ncc1-c1cnn(C)c1 is 179

The recorded potency estimated from few doses for Cc1cc(NC(=O)c2cccc(NC(=O)/C=C/CN(C)C)c2)ccc1Nc1nccc(-c2cccnc2)n1 is 273

The recorded potency estimated from few doses for NCCNS(=O)(=O)c1ccc(-c2ccnc3[nH]ccc23)cc1 [GSK977617A] is 295

The recorded potency estimated from few doses for C[C@@H](Oc1cc(-n2cnc3ccc(CN4CCN(C)CC4)cc32)sc1C(N)=O)c1ccccc1C(F)(F)F is 264

The recorded potency estimated from few doses for COc1cc(F)c(F)cc1C(=O)c1cnc(NC2CCN(S(C)(=O)=O)CC2)nc1N is 157

The recorded potency estimated from few doses for Cl.Cn1c(=O)c(Cc2ccc(F)cc2F)cc2cnc(NC3CCOCC3)nc21 is 247

The recorded potency estimated from few doses for Cl.Cl.NCC(C(=O)Nc1cc(Br)c(-c2ccnc3[nH]ccc23)s1)c1ccccc1.NCC(C(=O)Nc1cc(Br)c(-c2ccnc3[nH]ccc23)s1)c1ccccc1 (stereo not drawn) [GSK1269851A] is 275

The recorded potency estimated from few doses for CN1C[C@@H]2Cn3c(c(C4=C(c5cn(C)c6ccccc56)C(=O)NC4=O)c4ccccc43)C[C@H]2C1.Cl is 29.7
